# SUBJECT_OF_TEST: T1, mature human TGF-beta 3 (human, UniProt P10600 301-412)
# T1 sequence: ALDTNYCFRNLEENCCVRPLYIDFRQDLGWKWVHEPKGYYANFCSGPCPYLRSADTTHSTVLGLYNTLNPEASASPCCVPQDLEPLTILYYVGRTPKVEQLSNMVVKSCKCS
# EXPERIMENTAL_DETAILS: cell-based or functional assay
MEASUREMENT_KIND: Geometric mean IC50, HEK-Blue TGF-beta reporter gene assay (nM)
Numbers only, in nM.

For orientation, consider the following solved cases.
{"BINDER": "humanised antibody 4856 Fab graft gL3gH20 (Fab, V domains shown) VH: EVQLVESGGGLVKPGGSLRLSCAASGFSLSSYDMSWVRQAPGKGLEWISIIYGGSGSTWYASWAKGRFTMSKDSAKNSVYLQMNSLRAEDTAVYYCARGRDAGAGGSRNGYSLWGQGTLVTVSS VL: AYDMTQSPSTLSASVGDRVTITCQASESIYSGLAWYQQKPGKAPKLLIYAASDLASGVPSRFSGSGSGTEYTLTISSLQPDDFATYYCQQTWTDGGIDNPFGGGTKVEIKR", "ASSAY_VALUE": 0.302}
{"BINDER": "humanised antibody 4856 Fab graft gL3gH29 (Fab, V domains shown) VH: EVQLVESGGGLVKPGGSLRLSCAASGFSLSSYDMSWVRQAPGKGLEWIGIIYGGSGSTWYASWAKGRFTISRDSAKNSVYLQMNSLRAEDTAVYYCARGRDAGAGGSRDGYSLWGQGTLVTVSS VL: AYDMTQSPSTLSASVGDRVTITCQASESIYSGLAWYQQKPGKAPKLLIYAASDLASGVPSRFSGSGSGTEYTLTISSLQPDDFATYYCQQTWTDGGIDNPFGGGTKVEIKR", "ASSAY_VALUE": 1.95}
{"BINDER": "humanised antibody 4856 Fab graft gL3gH23 (Fab, V domains shown) VH: EVQLVESGGGLVKPGGSLRLSCAASGFSLSSYDMSWVRQAPGKGLEWIGIIYGGSGSTWYASWAKGRFTISRDSAKNSVYLQMNSLRAEDTAVYYCARGRDAGAGGSRNAYSLWGQGTLVTVSS VL: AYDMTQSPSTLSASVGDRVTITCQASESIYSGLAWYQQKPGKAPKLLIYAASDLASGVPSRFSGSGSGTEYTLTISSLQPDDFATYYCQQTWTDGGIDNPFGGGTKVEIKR", "ASSAY_VALUE": 1.99}

Please look at the following binder next.
Reported Geometric mean IC50, HEK-Blue TGF-beta reporter gene assay ( humanised antibody 4856 Fab graft gL3gH13 (Fab, V domains shown, Human gamma-1 CH1 (G1m17) and human C-kappa (K1m3); also called 4856gL3gH13) VH: EVQLVESGGGLVKPGGSLRLSCAASGFSLSSYDMSWVRQAPGKGLEWIGIIYGGSGSTWYASWAKGRFTISRDSAKNSVYLQMNSLRAEDTAVYYCARGRDAGAGGSRNGYSLWGQGTLVTVSS VL: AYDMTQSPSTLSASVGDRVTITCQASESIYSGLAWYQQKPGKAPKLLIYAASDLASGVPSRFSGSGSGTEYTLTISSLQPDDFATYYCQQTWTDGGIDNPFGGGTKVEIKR ) = 0.475

The origin of these recorded values is patent US20200407436A1.
